- target_entity: Tau binding to heparin (HS-GAG) (Homo sapiens, UniProt P10636)
- Sequence (P10636 with tags, fused parts or gaps): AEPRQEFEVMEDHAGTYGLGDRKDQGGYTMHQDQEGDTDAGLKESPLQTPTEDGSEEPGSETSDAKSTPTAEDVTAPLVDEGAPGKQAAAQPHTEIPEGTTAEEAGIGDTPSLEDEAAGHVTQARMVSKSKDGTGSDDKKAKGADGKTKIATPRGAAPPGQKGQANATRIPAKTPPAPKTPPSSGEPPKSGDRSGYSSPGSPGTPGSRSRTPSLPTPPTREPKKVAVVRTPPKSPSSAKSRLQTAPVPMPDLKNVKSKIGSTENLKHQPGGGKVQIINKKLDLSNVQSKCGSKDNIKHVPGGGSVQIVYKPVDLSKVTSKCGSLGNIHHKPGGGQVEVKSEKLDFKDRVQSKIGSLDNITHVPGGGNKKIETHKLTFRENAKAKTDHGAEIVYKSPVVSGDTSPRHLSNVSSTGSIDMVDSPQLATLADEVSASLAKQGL
- measurement_notes: Inhibition of Tau binding to immobilized heparin-BSA (ELISA)
- Set-up: species or system porcine
- condition_set: Tau/Heparin Activity (IC-50), Tau, heparin-BSA
- Protocol: Porcine intestinal mucosa heparin conjugated to Bovine Serum Albumin (Heparin-BSA) was prepared as described (Najjam, S. et al. 1997, Cytokine 12, 1013-1022). […] Bound GBAP was detected by a monoclonal antibody specific for that GBAP, followed by incubation with secondary antibody conjugated to horseradish peroxidase (HRP). […] The Optical Density of the samples was measured at 450 nm using an ELISA plate reader (BioTek Synergy H1). […] IC-50s were calculated using GraphPad Prism software. […]
Where a name gives a salt, the structure may show the parent alone.
result_type: pIC50
The read-out pIC50 is expressed as -log10 of concentration in moles per litre.

Q) Entry under review: CC(=NNc1ccnc2cc(Cl)ccc12)c1ccc(-n2ccnc2)cc1 [Compound 36, phosphate] . Reported pIC50?
A) 4.55

Q) Similarly, Fc1cc(/C=N/Nc2ccnc3cc(Cl)ccc23)ccc1-n1ccnc1 [Compound 35, hydrochloride] ?
A) 4.38

Q) Similarly, Clc1ccc2c(N/N=C/c3ccc(-n4cccn4)cc3)ccnc2c1 ?
A) 5.81

Q) Similarly, C/C(=N\Nc1ncnc2ccccc12)c1ccc(-n2cc(C)nc2C)nc1 ?
A) 4.33

* * *

- target_entity: Alpha-Synuclein Protofibril binding to heparin (HS-GAG) (Homo sapiens, UniProt P37840)
- measurement_notes: Inhibition of alpha-synuclein protofibril binding to immobilized heparin-BSA (ELISA)
- Parameters: species or system porcine
- condition_set: read-out: Alpha-Synuclein/Heparin Activity (% inhibition class)
Structures can show the parent of a compound that is named as a salt.
result_type: inhibition at 30 µM

Q) // map Fc1ccc2c(N/N=C/c3ccc(-n4ccnc4)cc3)ccnc2c1 to recorded inhibition at 30 µM (system: Alpha-Synuclein Protofibril binding to heparin (HS-GAG) (Homo sapiens, UniProt P37840))
A) < 30%

Q) Similarly, C[n+]1ccn(-c2ccc(Nc3ncnc4cc(Cl)ccc34)cn2)c1 ?
A) < 30%

Q) Similarly, Fc1cc(/C=N/Nc2ccnc3cc(Cl)ccc23)ccc1-n1ccnc1 [Compound 35, hydrochloride] ?
A) < 30%

Q) Similarly, COc1cc(Nc2nncc3cc(Cl)ccc23)cnc1-n1cnc(C)c1C ?
A) < 30%

Q) Similarly, C/C(=N\Nc1ncnc2cc(F)ccc12)c1ccc(-n2cc[n+](C)c2)nc1 ?
A) > 30%

Q) Similarly, Cc1cn(-c2ccc(Nc3cncc4cc(Cl)ccc34)cn2)c(C)n1 ?
A) < 30%

Q) Similarly, C/C(=N\Nc1ncnc2cc(Cl)ccc12)c1cccc(N2CCN(C)CC2)c1 ?
A) > 30%

Q) Similarly, C(=N\Nc1ccc2c3c(cccc13)CC2)/c1ccc(-n2ccnc2)cc1 ?
A) < 30%

Q) Similarly, CC(=NNc1ccnc2cc(Cl)ccc12)c1ccc(-n2cc[n+](C)c2)nc1 ?
A) < 30%

Q) Similarly, COc1cc(Nc2cncc3cc(Cl)ccc23)cnc1-n1cnc(C)c1C ?
A) < 30%

Q) Similarly, Cc1ncn(-c2ccc(/C=N/Nc3ccnc4cc(Cl)ccc34)cc2)c1C ?
A) < 30%

Q) Similarly, Cc1ncn(-c2ncc(Nc3ncnc4cc(Cl)ccc34)cc2O)c1C ?
A) < 30%

Q) Similarly, COc1cc2nccc(NN=Cc3ccc(-n4ccnc4)c(C)c3)c2cc1OC [Compound 11, hydrochloride] ?
A) < 30%

Q) Similarly, C/C(=N\Nc1ncnc2cc(Cl)ccc12)c1cccc(CN(C)C)c1 ?
A) > 30%

Q) Similarly, C/C(=N\Nc1ncnc2cc(Cl)ccc12)c1ccc(-n2cncn2)nc1 ?
A) > 30%

Q) Similarly, CN1CCN(c2cc(Nc3ccnc4cc(Cl)ccc34)ccn2)CC1 ?
A) < 30%

Q) Similarly, COc1ccc2c(NN=Cc3ccc(-n4ccnc4)c(C)c3)ccnc2c1 ?
A) < 30%

Q) Similarly, C/C(=N\Nc1ncnc2ccccc12)c1ccc(-n2cc(C)nc2C)nc1 ?
A) < 30%
